src = patent US20250179114A1

TARGET: glucocorticoid receptor (Homo sapiens)
Construct: host or cells: HEK293
Sequence (P04150 1-777): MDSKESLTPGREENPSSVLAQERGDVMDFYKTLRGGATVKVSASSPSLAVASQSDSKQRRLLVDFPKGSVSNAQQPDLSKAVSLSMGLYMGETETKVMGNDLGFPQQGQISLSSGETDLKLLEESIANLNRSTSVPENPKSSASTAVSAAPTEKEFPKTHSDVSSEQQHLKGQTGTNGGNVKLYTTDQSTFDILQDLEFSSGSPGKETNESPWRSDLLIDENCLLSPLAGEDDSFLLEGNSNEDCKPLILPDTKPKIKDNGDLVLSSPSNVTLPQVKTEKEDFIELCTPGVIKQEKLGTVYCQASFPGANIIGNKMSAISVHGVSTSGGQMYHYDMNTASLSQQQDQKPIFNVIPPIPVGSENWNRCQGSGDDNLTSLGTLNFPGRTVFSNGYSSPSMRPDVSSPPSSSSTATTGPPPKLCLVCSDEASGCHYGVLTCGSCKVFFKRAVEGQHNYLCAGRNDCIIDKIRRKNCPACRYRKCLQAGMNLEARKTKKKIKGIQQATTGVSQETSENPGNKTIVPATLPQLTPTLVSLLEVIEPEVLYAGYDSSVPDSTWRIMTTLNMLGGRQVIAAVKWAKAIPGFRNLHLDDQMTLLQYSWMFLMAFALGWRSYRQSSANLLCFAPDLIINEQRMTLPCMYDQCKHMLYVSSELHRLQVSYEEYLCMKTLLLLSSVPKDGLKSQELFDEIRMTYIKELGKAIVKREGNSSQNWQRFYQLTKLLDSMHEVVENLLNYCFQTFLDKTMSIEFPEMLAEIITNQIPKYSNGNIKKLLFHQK
ASSAY_TEXT: Activity assay of glucocorticoid receptor reporter gene GRE
Type: cell-based
COND: HEK293 cells transfected with pGL5 and pBIND-GR; 24 h; Dual-Glo luciferase
MEASURED_METRIC: EC50 (nM)

- COMPOUND: "C[C@]12C=CC(=O)C=C1CC[C@@H]1[C@@H]2[C@@H](O)C[C@@]2(C)[C@H]1C[C@H]1O[C@@H](c3cc(Cc4cccc(N)c4)cs3)O[C@]12C(=O)CO [Compound 18]"
  TARGET: "glucocorticoid receptor (Homo sapiens)"
  COMPARISON_SYMBOL: "="
  MEASURED_VALUE: 0.28
- COMPOUND: "C[C@]12C=CC(=O)C=C1CC[C@H]1[C@@H]3C[C@H]4O[C@@H](c5ccc(Cc6ccc(N)cc6)s5)O[C@@]4(C(=O)CO)[C@@]3(C)C[C@H](O)[C@@]12F [Compound 17]"
  TARGET: "glucocorticoid receptor (Homo sapiens)"
  COMPARISON_SYMBOL: "="
  MEASURED_VALUE: 0.33
- COMPOUND: "C[C@]12C=CC(=O)C=C1CC[C@@H]1[C@@H]2[C@@H](O)C[C@@]2(C)[C@H]1C[C@H]1O[C@@H](c3ccc(Cc4cccc(N)c4)s3)O[C@]12C(=O)CO [Compound 11]"
  TARGET: "glucocorticoid receptor (Homo sapiens)"
  COMPARISON_SYMBOL: "="
  MEASURED_VALUE: 0.37
- COMPOUND: "CC12C=CC(=O)C=C1CCC1C2C(O)CC2(C)C1CC1OC(c3ccc(Oc4cccc(N)c4)cn3)OC12C(=O)CO (centres unmarked) [Compound 19]"
  TARGET: "glucocorticoid receptor (Homo sapiens)"
  COMPARISON_SYMBOL: ">"
  MEASURED_VALUE: 1000
- COMPOUND: "C[C@]12C=CC(=O)C=C1CC[C@H]1[C@@H]3C[C@H]4O[C@@H](c5ccn(Cc6ccc(N)cc6)c5)O[C@@]4(C(=O)CO)[C@@]3(C)C[C@H](O)[C@@]12F [Compound 8]"
  TARGET: "glucocorticoid receptor (Homo sapiens)"
  COMPARISON_SYMBOL: "="
  MEASURED_VALUE: 0.07
- COMPOUND: "C[C@]12C=CC(=O)C=C1CC[C@@H]1[C@@H]2[C@@H](O)C[C@@]2(C)[C@H]1C[C@H]1O[C@@H](c3coc(Cc4cccc(N)c4)c3)O[C@]12C(=O)CO [Compound 20]"
  TARGET: "glucocorticoid receptor (Homo sapiens)"
  COMPARISON_SYMBOL: ">"
  MEASURED_VALUE: 1000
- COMPOUND: "C[C@]12C=CC(=O)C=C1CC[C@@H]1[C@@H]2[C@@H](O)C[C@@]2(C)[C@H]1C[C@H]1O[C@H](c3cnc(Cc4cccc(N)c4)s3)O[C@]12C(=O)CO [Compound 28S]"
  TARGET: "glucocorticoid receptor (Homo sapiens)"
  COMPARISON_SYMBOL: ">"
  MEASURED_VALUE: 1000
- COMPOUND: "C[C@]12C=CC(=O)C=C1CC[C@@H]1[C@@H]2[C@@H](O)C[C@@]2(C)[C@H]1C[C@H]1O[C@@H](c3ccn(Cc4ccc(N)cc4)c3)O[C@]12C(=O)CO [Compound 2]"
  TARGET: "glucocorticoid receptor (Homo sapiens)"
  COMPARISON_SYMBOL: "="
  MEASURED_VALUE: 0.15
- COMPOUND: "C[C@]12C=CC(=O)C=C1CC[C@@H]1[C@@H]2[C@@H](O)C[C@@]2(C)[C@H]1C[C@H]1O[C@@H](c3ccc(Cc4ccc(N)cc4)s3)O[C@]12C(=O)CO [Compound 15]"
  TARGET: "glucocorticoid receptor (Homo sapiens)"
  COMPARISON_SYMBOL: "="
  MEASURED_VALUE: 0.63
- COMPOUND: "C[C@]12C=CC(=O)C=C1CC[C@@H]1[C@@H]2[C@@H](O)C[C@@]2(C)[C@H]1C[C@H]1O[C@@H](c3cnc(Cc4cccc(N)c4)s3)O[C@]12C(=O)CO [Compound 28, reference compound]"
  TARGET: "glucocorticoid receptor (Homo sapiens)"
  COMPARISON_SYMBOL: "="
  MEASURED_VALUE: 10
- COMPOUND: "C[C@]12C=CC(=O)C=C1CC[C@H]1[C@@H]3C[C@H]4O[C@@H](c5ccn(Cc6cccc(N)c6)c5)O[C@@]4(C(=O)CO)[C@@]3(C)C[C@H](O)[C@@]12F [Compound 7]"
  TARGET: "glucocorticoid receptor (Homo sapiens)"
  COMPARISON_SYMBOL: "="
  MEASURED_VALUE: 0.13
